experiment: Half life in human liver microsomes at 1 uM by LC-MS/MS analysis
MEASURED_QUANTITY: half-life at 1 µM

# input Form field: reported half-life at 1 µM of CC(=O)N[C@@H]1CC[C@@]2(C)C(=CC[C@H]3C4=CC=C(c5cccnc5)[C@@]4(C)CC[C@@H]32)C1
# output 1 to 50 min

# input Form field: reported half-life at 1 µM of C[C@]12CC[C@H]3[C@@H](CCC4=C/C(=N/O)CC[C@@]43C)C1=CC=C2c1cccnc1
# output 1 to 50 min

# input Form field: reported half-life at 1 µM of C[C@]12CC[C@H]3[C@@H](CC[C@H]4C[C@@H](O)CC[C@@]43C)C1=CC=C2n1ccnn1
# output 1 to 10 min

# input Form field: reported half-life at 1 µM of Cc1ccncc1C1=CC=C2[C@@H]3CC=C4C[C@@H](O)CC[C@]4(C)[C@H]3CC[C@]12C
# output 1 to 50 min

# input Form field: reported half-life at 1 µM of CN1CC[C@@]2(C)C(=CC1=O)CC[C@H]1C3=CC=C(c4cccnc4)[C@@]3(C)CC[C@@H]12
# output 1 to 50 min

---
# input Form field: reported half-life at 1 µM of C[C@@]1(O)CC[C@@]2(C)C(=CC[C@@H]3[C@@H]2CC[C@]2(C)C(c4cncc(F)c4)=CC[C@@H]32)C1
# output ≥ 50 min

# input Form field: reported half-life at 1 µM of CCCOc1cncc(C2=CC[C@H]3[C@@H]4CCN5CCCCC[C@]5(C)[C@H]4CC[C@]23C)c1
# output 10 to 60 min
